These measurements were taken from paper PMC5748279.

target: UniProt:A0A0H3MB87; assay: biochemical; type: binding, Mycobacterium bovis BCG; conditions: read-out: IC50
Sequence (A0A0H3MB87 1-463): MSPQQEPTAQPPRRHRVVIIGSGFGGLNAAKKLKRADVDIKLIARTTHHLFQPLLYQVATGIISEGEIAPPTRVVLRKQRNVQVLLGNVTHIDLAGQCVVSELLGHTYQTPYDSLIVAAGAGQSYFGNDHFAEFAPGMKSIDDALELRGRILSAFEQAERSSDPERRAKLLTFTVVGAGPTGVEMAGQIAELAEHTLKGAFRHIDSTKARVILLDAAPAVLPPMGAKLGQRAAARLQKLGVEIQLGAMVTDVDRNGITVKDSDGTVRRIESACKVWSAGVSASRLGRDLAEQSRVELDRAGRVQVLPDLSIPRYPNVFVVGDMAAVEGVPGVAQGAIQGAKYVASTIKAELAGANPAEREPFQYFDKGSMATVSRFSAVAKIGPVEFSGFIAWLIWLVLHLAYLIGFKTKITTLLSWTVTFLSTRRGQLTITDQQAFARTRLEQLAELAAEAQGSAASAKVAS
pIC50: −log10 of the molar value.
Property: pIC50

pIC50 of O=C(Nc1ccccc1)c1ccc(=O)n(Cc2ccc(F)cc2)c1 [Compound 25] on UniProt:A0A0H3MB87? ≤ 4.52
